meta.source: patent US6407116B1

measured.property: melting point

- O=c1c2ccccc2n(CCCCN2CCC(OC(c3ccccc3)c3ccccc3)CC2)c(=O)n1CCO: 145 to 150 °C
- O=c1[nH]c(=O)n(CCCCN2CCC(OC(c3ccccc3)c3ccccc3)CC2)c2cc(Cl)ccc12: 169 to 171 °C
- CCOC(=O)CN(C)C(=O)Cn1c(=O)c2ccccc2n(CCCCN2CCC(OC(c3ccccc3)c3ccccc3)CC2)c1=O.Cl: 170 to 172 °C
